- Test system: M. tuberculosis Δsdh1 mutant
- Format: cell-based
- condition-notes: aerobic, at two and five days
value-kind: clearing of the Δsdh1 mutant by single drugs vs parental

CN[C@@H]1[C@H](O[C@H]2[C@H](O[C@H]3[C@H](O)[C@@H](O)[C@H](N=C(N)N)[C@@H](O)[C@@H]3N=C(N)N)O[C@@H](C)[C@]2(O)C=O)O[C@@H](CO)[C@H](O)[C@H]1O	this was not true
NNC(=O)c1ccncc1	this was not true
CC[C@@H](CO)NCCN[C@@H](CC)CO [EMB, Ethambutol, reference compound]	this was not true
